These data points were gathered from patent US20260015350A1.

Consider the following compounds and their measured IC50 readings.
target: KRas^G12C (Homo sapiens, UniProt P01116, G12C); construct: Biotinylated KRas (corresponding to amino acids 1-169, produced at Accelegan Inc.); biotin (biotinylated); purchased Accelegan Inc; assay: KRas binding assay (TR-FRET tracer displacement), KRas G12C; settings: TR-FRET tracer displacement, KRas G12C
Sequence (P01116 1-169 isoform P01116-2 G12C): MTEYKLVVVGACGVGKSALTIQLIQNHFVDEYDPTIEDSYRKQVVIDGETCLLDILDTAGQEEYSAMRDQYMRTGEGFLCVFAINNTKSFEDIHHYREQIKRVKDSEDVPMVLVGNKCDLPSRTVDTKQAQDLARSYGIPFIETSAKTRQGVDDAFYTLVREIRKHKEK
Measurement Name: IC50

[[record]]
compound = "C=C1CN2CCCC2(COc2nc(N3CCCC4(CC(=O)N4)C3)c3cnc(-c4cc(O)cc5ccc(F)c(CC)c45)c(F)c3n2)C1 (stereo not drawn)"
value_observed = "< 2 nM"

[[record]]
compound = "C[C@@H]1C[C@@H]1c1c(Cl)cc(O)cc1-c1ncc2c(N3CCCn4nc(C(=O)N(C)C)cc4C3)nc(OC[C@@]34CCCN3C[C@H](F)C4)nc2c1F"
value_observed = "< 2 nM"

[[record]]
compound = "O=S1(=O)NCC2(CCCN(c3nc(OC[C@@]45CCCN4C[C@H](F)C5)nc4c(F)c(-c5c6ccccc6cc6[nH]ncc56)ncc34)C2)N1 (stereo partly drawn)"
value_observed = "< 2 nM"

[[record]]
compound = "CCc1c(F)ccc2cc(O)cc(-c3ncc4c(N5C[C@@H]6C[C@H](C5)[C@H](O)C6)nc(OCC56CCCN5C/C(=C/F)C6)nc4c3F)c12 (stereo partly drawn)"
value_observed = "< 2 nM"

[[record]]
compound = "CCc1c(F)ccc2cc(O)cc(-c3ncc4c(N5C[C@@H]6C[C@H](C5)[C@H](O)C6)nc(OC[C@@]56CCCN5C[C@H](OC)C6)nc4c3F)c12"
value_observed = "< 2 nM"

[[record]]
compound = "O=C1NC(=O)C2CC(c3nc(OCC45CCCN4CCC5)nc4c(F)c(-c5cccc6cccc(F)c56)ncc34)=CC12 (stereo not drawn)"
value_observed = "> 100000 nM"


* * *

target: KRas^G12R (Homo sapiens, UniProt P01116, G12R); construct: Biotinylated KRas (corresponding to amino acids 1-169, produced at Accelegan Inc.); biotin (biotinylated); purchased Accelegan Inc; test: KRas binding assay (TR-FRET tracer displacement), KRas G12R
Sequence (P01116 1-169 isoform P01116-2 G12R): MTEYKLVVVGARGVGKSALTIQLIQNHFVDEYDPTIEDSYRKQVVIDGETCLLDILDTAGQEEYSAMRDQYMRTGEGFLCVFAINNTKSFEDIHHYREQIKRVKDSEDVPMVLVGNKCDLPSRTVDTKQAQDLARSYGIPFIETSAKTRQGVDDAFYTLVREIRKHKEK
Consider the following compounds and their measured IC50 readings.
Measurement Name: IC50 (nM)

[[record]]
compound = "CCc1c(F)ccc2cc(O)cc(-c3ncc4c(N5CCCC6(CC(O)C6)C5)nc(OCC5(CN(C)C)CC5)nc4c3F)c12 (stereo not shown) [Example 698]"
qual = "<"
value_observed = 2

[[record]]
compound = "CCc1c(F)ccc2cc(O)cc(-c3ncc4c(N5CC6CCC(CO)(C6)C5)nc(OC[C@@]56CCCN5C[C@H](F)C6)nc4c3F)c12 (stereo partly shown) [Example 812]"
qual = "="
value_observed = 6

[[record]]
compound = "CCc1c(F)ccc2cc(O)cc(-c3ncc4c(N5CCCC6(C5)NC(=O)NC6=O)nc(N5CC(N(C)C)C5)nc4c3F)c12 (stereo not shown) [Example 534]"
qual = "="
value_observed = 2

[[record]]
compound = "CCc1cccc2cc3[nH]ncc3c(-c3ncc4c(N5CCCC6(CC(=O)N6)C5)nc(OC[C@@]56CCCN5C[C@H](F)C6)nc4c3F)c12 (stereo partly shown) [Example 771]"
qual = "="
value_observed = 4

[[record]]
compound = "O=C1CC2CN(c3nc(OCC45CCCN4CCC5)nc4c(F)c(-c5cccc6cccc(F)c56)ncc34)CCC2C(=O)N1 (stereo not shown) [Example 526]"
qual = "="
value_observed = 67700

[[record]]
compound = "CCc1c(F)ccc2cc(O)cc(-c3ncc4c(N5CCO[C@@H](CS(N)(=O)=O)C5)nc(OC[C@@]56CCCN5C[C@H](F)C6)nc4c3F)c12 [Example 636]"
qual = "<"
value_observed = 2

[[record]]
compound = "CCOC[C@@H]1CC[C@]2(COc3nc(N4CCC[C@@](C)(O)C4)c4cnc(-c5cc(O)cc6ccc(F)c(CC)c56)c(F)c4n3)CCCN12 [Example 853]"
qual = "<"
value_observed = 2

